Target: AKT2 (Homo sapiens, UniProt P31751)

{"Molecule": "NS(=O)(=O)c1cccc2c1C(=O)c1cccc(O)c1C2=O", "IC50 (µM)": 91.8}

###

Target: IKKb (Homo sapiens, UniProt O14920)
pIC50: −log10 of the molar value.
Experimental endpoint: pIC50

{"Molecule": "NS(=O)(=O)c1cccc2c1C(=O)c1cccc(O)c1C2=O", "Result": "< 4.00"}

###

Molecular target: PKC-d (Homo sapiens, UniProt Q05655)
Sequence (Q05655 whole entry): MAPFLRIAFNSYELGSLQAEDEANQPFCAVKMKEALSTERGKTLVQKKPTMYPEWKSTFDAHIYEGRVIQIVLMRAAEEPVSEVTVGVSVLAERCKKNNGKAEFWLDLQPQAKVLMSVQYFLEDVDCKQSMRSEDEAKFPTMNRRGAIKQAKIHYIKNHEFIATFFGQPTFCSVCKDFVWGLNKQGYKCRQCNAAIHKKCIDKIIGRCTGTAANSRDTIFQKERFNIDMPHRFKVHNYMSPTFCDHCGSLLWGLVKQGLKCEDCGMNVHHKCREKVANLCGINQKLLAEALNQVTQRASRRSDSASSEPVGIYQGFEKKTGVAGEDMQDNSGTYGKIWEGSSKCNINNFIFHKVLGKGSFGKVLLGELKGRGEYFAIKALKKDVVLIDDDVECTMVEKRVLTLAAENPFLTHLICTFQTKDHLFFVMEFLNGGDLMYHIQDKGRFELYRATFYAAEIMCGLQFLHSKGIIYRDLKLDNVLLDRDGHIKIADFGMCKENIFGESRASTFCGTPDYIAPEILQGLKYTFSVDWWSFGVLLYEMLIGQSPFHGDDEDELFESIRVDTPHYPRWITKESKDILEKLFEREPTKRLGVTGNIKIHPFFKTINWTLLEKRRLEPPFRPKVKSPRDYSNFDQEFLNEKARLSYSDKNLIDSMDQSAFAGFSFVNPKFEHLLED
Conditions: read-out: IC50 kinase activity, PKC-d; 10 concentrations, 100 μM highest
pIC50: −log10 of the molar value.
Experimental endpoint: pIC50

{"Compound": "NS(=O)(=O)c1cccc2c1C(=O)c1cccc(O)c1C2=O [LLL12]", "Experimental endpoint": "pIC50", "Result": "< 4.00"}

###

Biological target: PAK2 (Homo sapiens)
Sequence (Q13177 whole entry): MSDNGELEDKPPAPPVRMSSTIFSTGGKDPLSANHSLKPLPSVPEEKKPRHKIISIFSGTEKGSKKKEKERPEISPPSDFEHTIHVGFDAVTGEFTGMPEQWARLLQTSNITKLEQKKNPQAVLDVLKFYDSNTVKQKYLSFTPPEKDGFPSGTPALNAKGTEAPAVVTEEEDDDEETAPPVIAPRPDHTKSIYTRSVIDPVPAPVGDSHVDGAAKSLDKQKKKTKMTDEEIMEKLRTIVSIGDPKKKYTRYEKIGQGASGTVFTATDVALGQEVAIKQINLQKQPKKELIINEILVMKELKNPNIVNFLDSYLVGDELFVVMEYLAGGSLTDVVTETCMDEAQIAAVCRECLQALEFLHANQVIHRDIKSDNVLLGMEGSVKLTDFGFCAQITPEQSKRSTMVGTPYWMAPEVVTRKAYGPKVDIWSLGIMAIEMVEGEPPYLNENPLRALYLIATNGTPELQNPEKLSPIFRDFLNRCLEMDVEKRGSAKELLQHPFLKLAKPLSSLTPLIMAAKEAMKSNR

{"Molecule": "NS(=O)(=O)c1cccc2c1C(=O)c1cccc(O)c1C2=O [LLL12]", "IC50": "> 100 µM"}

###

Biological target: UniProtKB P09769
Sequence (P09769 whole entry): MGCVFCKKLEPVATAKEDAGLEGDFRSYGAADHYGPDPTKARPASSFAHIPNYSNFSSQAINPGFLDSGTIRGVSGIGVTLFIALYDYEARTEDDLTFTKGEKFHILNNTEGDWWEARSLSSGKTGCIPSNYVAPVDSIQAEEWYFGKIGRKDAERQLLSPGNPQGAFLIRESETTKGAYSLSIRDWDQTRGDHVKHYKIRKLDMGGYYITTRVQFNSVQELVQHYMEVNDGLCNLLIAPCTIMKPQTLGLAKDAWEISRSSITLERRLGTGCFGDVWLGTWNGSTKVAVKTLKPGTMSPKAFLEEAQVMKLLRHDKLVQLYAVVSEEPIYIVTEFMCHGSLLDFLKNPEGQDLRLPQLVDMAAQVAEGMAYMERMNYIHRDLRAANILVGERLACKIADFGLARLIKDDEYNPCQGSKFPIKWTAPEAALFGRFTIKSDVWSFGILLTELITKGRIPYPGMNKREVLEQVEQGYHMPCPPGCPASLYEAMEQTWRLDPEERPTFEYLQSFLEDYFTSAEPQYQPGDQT

{"Compound": "NS(=O)(=O)c1cccc2c1C(=O)c1cccc(O)c1C2=O [LLL12]", "Study system": "UniProtKB P09769", "Uom": "µM", "IC50": 57.2}

###

Target: PKC-a (Homo sapiens, UniProt P17252)
pIC50: −log10 of the molar value.
Experimental endpoint: pIC50

{"Molecule": "NS(=O)(=O)c1cccc2c1C(=O)c1cccc(O)c1C2=O [LLL12]", "Study system": "PKC-a (Homo sapiens, UniProt P17252)", "Experimental endpoint": "pIC50", "Result": "< 4.00"}

###

Molecular target: UniProt P41240
Sequence (P41240 whole entry): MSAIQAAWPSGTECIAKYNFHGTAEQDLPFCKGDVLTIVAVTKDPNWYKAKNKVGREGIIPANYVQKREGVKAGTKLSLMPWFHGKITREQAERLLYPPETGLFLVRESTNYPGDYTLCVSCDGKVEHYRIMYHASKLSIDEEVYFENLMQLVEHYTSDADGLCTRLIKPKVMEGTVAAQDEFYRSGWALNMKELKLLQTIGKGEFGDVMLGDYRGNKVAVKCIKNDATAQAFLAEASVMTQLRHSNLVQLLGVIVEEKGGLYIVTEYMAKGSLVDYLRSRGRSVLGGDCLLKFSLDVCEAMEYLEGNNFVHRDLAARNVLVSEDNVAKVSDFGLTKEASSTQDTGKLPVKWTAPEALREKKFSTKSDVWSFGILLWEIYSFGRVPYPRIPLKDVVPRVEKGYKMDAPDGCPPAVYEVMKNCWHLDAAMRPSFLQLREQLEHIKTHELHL
pIC50: −log10 of the molar value.
Experimental endpoint: pIC50

{"Molecule": "NS(=O)(=O)c1cccc2c1C(=O)c1cccc(O)c1C2=O", "Study system": "UniProt P41240", "Quantitative readout": 4.13}

###

Biological target: JAK3 (Homo sapiens)
Sequence (P52333 whole entry): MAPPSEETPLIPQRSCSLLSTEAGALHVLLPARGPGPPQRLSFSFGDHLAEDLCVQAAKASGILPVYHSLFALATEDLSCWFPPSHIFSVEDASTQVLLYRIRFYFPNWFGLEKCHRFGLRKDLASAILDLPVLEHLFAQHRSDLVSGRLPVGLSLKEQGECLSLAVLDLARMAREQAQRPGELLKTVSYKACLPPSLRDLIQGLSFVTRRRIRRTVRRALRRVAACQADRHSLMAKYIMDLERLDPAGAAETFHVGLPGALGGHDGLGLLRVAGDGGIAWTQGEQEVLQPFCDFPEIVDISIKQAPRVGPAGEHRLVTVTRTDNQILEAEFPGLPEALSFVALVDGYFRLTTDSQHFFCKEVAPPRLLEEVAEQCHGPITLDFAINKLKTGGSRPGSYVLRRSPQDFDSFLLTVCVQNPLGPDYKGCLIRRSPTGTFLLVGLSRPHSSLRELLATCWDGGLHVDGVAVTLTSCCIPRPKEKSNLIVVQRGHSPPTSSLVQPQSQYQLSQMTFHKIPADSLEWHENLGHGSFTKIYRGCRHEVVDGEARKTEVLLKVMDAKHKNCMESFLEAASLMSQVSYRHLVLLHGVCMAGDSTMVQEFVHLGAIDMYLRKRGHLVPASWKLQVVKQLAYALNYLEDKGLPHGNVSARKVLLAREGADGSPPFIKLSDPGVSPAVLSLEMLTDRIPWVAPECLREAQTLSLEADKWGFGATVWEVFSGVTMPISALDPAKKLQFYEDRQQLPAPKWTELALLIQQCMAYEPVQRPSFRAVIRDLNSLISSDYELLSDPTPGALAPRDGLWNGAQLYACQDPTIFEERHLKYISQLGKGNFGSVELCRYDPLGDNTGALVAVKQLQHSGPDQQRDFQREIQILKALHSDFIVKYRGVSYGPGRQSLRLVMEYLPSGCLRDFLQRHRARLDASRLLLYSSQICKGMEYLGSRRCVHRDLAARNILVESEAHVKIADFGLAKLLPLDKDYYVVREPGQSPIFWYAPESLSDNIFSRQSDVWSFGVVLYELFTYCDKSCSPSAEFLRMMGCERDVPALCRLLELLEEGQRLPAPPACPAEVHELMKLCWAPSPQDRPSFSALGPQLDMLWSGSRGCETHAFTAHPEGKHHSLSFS

{"Compound": "NS(=O)(=O)c1cccc2c1C(=O)c1cccc(O)c1C2=O [LLL12]", "IC50 [µM]": 89.7}

###

Biological target: PDGFR-a (Homo sapiens, UniProt P16234)
Sequence (P16234 24-1089): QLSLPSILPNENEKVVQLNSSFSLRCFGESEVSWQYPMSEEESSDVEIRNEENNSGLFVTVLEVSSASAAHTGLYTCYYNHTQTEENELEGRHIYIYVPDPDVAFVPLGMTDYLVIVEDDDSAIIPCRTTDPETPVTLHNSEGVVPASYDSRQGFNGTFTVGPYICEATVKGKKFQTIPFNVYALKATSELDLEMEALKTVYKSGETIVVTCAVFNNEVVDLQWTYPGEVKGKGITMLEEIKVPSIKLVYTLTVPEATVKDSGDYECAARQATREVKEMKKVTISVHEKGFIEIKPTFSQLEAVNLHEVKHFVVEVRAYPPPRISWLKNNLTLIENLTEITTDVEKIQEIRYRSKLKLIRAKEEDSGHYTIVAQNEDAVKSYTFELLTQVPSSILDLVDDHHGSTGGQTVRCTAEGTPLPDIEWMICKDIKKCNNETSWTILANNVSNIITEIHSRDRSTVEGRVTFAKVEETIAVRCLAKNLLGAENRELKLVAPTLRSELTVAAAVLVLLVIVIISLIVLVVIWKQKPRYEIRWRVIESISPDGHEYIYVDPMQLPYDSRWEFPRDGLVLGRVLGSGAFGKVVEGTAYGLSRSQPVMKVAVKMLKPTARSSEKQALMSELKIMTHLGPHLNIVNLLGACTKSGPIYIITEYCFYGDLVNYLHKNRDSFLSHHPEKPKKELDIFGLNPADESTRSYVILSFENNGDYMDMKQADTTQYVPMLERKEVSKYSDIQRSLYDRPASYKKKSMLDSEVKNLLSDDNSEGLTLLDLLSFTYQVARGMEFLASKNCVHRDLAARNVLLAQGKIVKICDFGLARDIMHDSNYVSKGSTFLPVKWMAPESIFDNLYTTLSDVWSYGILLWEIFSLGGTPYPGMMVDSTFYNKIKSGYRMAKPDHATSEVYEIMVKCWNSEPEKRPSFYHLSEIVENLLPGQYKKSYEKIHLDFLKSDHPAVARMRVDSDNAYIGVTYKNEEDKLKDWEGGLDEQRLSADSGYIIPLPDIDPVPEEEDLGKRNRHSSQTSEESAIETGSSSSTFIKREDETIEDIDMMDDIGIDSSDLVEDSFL
Conditions: read-out: IC50 kinase activity, PDGFR-a; 10 concentrations, 100 μM highest

{"Molecule": "NS(=O)(=O)c1cccc2c1C(=O)c1cccc(O)c1C2=O", "Study system": "PDGFR-a (Homo sapiens, UniProt P16234)", "IC50": "> 100 µM"}

###

Molecular target: Fyn (Homo sapiens, UniProt P06241)
Sequence (P06241 whole entry): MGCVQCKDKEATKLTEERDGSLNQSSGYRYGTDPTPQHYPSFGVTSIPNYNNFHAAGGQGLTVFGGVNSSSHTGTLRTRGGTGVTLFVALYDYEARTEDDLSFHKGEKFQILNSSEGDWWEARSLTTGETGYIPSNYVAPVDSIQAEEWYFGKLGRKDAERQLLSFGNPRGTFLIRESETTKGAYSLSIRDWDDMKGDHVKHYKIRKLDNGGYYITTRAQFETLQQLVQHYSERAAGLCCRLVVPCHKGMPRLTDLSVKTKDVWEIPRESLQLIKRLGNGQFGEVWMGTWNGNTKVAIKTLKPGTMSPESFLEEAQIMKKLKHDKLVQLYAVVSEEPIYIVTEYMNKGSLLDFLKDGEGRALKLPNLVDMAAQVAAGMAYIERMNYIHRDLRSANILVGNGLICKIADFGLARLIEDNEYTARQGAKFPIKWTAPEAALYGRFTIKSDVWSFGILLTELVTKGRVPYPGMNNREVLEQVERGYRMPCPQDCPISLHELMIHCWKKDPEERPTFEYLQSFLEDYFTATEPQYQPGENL
pIC50: −log10 of the molar value.
Experimental endpoint: pIC50

{"Molecule": "NS(=O)(=O)c1cccc2c1C(=O)c1cccc(O)c1C2=O", "Result": "< 4.00"}
